# Assay Procedure: chemical genetic growth profiling, strain panel (AID 1159580);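 note: tested at 20 µM; growth read once vehicle control cultures reached saturation at 30 °C; 1 = growth at the plate median or of vehicle wells; lower values mean less growth of the strain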
# Protocol Conditions: S. cerevisiae deletion strains, growth OD, locus YNL175C, strain NOP13, hits give low values
Hit rate of the full screen: of about 5,500 compounds, about 2,000 (36%) were called active. Not shown: some 18% with an inconclusive outcome. Some of the results follow.
Task for the reader: assign each of the following molecules its reported normalized growth.
Form rule: numeric answer, no unit written next to it.

The recorded normalized growth for C#CCOC(=O)C1=CCCN(C)C1 is 1.01

Entry under test: NC(N)=NC(N)=Nc1cccc(Cl)c1 . Its normalized growth was 1.01

normalized growth recorded for this molecule, N#C/C(=C\c1c[nH]c2ccccc12)C(=O)c1ccc(O)c(O)c1 , is 1

For this molecule ( C[C@H]1CC2C3CCC4=CC(=O)C=C[C@]4(C)[C@@]3(Cl)[C@@H](O)C[C@]2(C)[C@@]1(O)C(=O)CO (stereo not given in full) ), measured normalized growth is 0.994

Looking up CC(=O)NC(CS)C(=O)O (stereo not given) , I found its normalized growth recorded as 0.974
